- Test system: HeLa
- ASSAY PROCEDURE: SRB colorimetric assay of cell growth and viability, HeLa
- Type: cell-based, human
- TEST PARAMETERS: HELA; 48 hours exposure
Where a SMILES comes first, the peptide text is derived from it. Bridges are numbered along the chain shown (N, C = ends). [ ]: non-standard residue; d: D form. The star is where a group is joined. d(aIle) = CC[C@H](C)[C@@H](N)C(=O)O; d(aThr) = C[C@@H](O)[C@@H](N)C(=O)O; Hexanoyl(5-Me) = CC(C)CCCC(=O)*; Orn = NCCC[C@H](N)C(=O)O; Dhb = C/C=C(\N)C(=O)O

# COMPOUND, TGI HELA (Molar)
rows = [
    ("C/C=C1\\NC(=O)[C@H](Cc2ccccc2)NC(=O)[C@@H](C(C)C)NC(=O)[C@@H]([C@@H](C)CC)NC(=O)[C@H](NC(=O)[C@H](NC(=O)[C@H](CCCN)NC(=O)[C@H]2CCCN2C(=O)[C@H](NC(=O)[C@@H](NC(=O)CNC(=O)[C@H](NC(=O)CCCC(C)C)C(C)C)C(C)C)C(C)C)[C@@H](C)CC)[C@@H](C)OC(=O)[C@H](C(C)C)NC1=O [Compound 111, [Gly^12]-KF] ({Hexanoyl(5-Me)}-[dV]GV[dV][dP][Orn][d(aIle)][d(aThr)][d(aIle)][dV]F[Dhb]V; ester 8-C)", "2.94E−06"),
    ("C/C=C1\\NC(=O)[C@H](Cc2ccccc2)NC(=O)[C@@H](C(C)C)NC(=O)[C@@H]([C@@H](C)CC)NC(=O)[C@H](NC(=O)[C@H](NC(=O)[C@H](CCCN)NC(=O)[C@@H]2CCCN2C(=O)[C@H](NC(=O)[C@@H](NC(=O)[C@@H](NC(=O)[C@H](NC(=O)CC[C@@H](C)CC)C(C)C)[C@@H](C)O)C(C)C)C(C)C)[C@@H](C)CC)[C@@H](C)OC(=O)[C@H](C(C)C)NC1=O [Compound 59, [Pro^9, (4S)-MeHex^14]-KF]", "6.76E−06"),
    ("[2H]C([2H])([2H])C([2H])(C([2H])([2H])[2H])[C@]([2H])(NC(=O)[C@@H](NC(=O)[C@H](NC(=O)CCCC(C)C)C(C)C)[C@@H](C)O)C(=O)N[C@@H](C(=O)N1CCC[C@@H]1C(=O)N[C@@H](CCCN)C(=O)N[C@@H](C(=O)N[C@H]1C(=O)N[C@H]([C@@H](C)CC)C(=O)N[C@H](C(C)C)C(=O)N[C@@H](Cc2ccccc2)C(=O)N/C(=C\\C)C(=O)N[C@@H](C(C)C)C(=O)O[C@@H]1C)[C@@H](C)CC)C(C)C [Compound 100, [L-Val-d8^11]-KF]", "1.15E−06"),
    ("C/C=C1\\NC(=O)[C@H](Cc2ccccc2)NC(=O)[C@@H](C(C)C)NC(=O)[C@@H]([C@@H](C)CC)NC(=O)[C@H](NC(=O)[C@H](NC(=O)[C@H](CCCN)NC(=O)[C@H]2CCCN2C(=O)[C@H](NC(=O)[C@@H](NC(=O)[C@H](CCC(=O)O)NC(=O)[C@H](NC(=O)CCCC(C)C)C(C)C)C(C)C)C(C)C)[C@@H](C)CC)[C@@H](C)OC(=O)[C@H](C(C)C)NC1=O [Compound 115, [Glu^12]-KF] ({Hexanoyl(5-Me)}-[dV]EV[dV][dP][Orn][d(aIle)][d(aThr)][d(aIle)][dV]F[Dhb]V; ester 8-C)", "6.64E−06"),
]
